Molecular target: human PCSK9 (proprotein convertase subtilisin kexin type 9) (human, UniProt Q8NBP7 31-692)
Sequence (Q8NBP7 31-692 limits assumed): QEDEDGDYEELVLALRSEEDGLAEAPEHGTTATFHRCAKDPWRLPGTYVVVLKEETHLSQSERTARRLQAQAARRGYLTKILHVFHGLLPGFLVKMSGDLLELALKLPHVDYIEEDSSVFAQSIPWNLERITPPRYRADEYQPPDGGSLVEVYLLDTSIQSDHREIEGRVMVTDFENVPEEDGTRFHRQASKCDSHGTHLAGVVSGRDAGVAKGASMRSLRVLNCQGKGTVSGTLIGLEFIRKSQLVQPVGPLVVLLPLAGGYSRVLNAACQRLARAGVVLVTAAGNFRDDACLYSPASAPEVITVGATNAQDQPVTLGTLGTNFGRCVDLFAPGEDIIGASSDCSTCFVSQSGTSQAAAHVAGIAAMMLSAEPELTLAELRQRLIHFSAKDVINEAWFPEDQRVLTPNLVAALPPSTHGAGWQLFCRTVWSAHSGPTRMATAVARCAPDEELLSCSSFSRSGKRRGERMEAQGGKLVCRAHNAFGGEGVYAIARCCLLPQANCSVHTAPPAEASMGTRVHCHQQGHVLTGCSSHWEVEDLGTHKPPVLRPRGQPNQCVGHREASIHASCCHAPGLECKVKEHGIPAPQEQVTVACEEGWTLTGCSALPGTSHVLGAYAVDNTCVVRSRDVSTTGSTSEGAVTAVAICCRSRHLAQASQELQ
Assay: cell-based or functional assay
reportedProperty: LDLR Depletion (% inhibition at 75 nM) (%)

1 = 2381A08 (designed binder) MGVSDVPRDLEVVAATPTSLLISWDAPADGGYGYYRITYGETGGNSPVQEFTVPGSKGTATISGLKPGVDYTITVYAVEYDFPGAGYYHRPISINYRTEIDKPSQHHHHHH
2 = 2382E04 (designed binder) MGVSDVPRDLEVVAATPTSLLISWDAPAGGGYGYYRITYGETGGNSPVQEFTVPVSKGTATISGLKPGVDYTITVYAVEFTFPGAGYYHRPISINYRTEIDKPSQHHHHHH
[in] Between the entries labelled 1 and 2 , which has a larger LDLR Depletion (% inhibition at 75 nM) value on record? Provide the label of your selected option as the answer.
[out] 1

Reference source: patent US20120094909A1
